All figures here come from ChEMBL document CHEMBL1201862.

System: SNB-19
Assay: NCI tumour cell line growth inhibition, 48 h
Active and inactive are the calls of the source. Rule as the data show it: active = GI50 up to about 1.1 µM and inactive = higher.
Give one outcome, nothing more. List: active, inactive

[[record]]
compound = "Cc1ccc(S(=O)(=O)NCCCN(CCCNS(=O)(=O)c2ccc(C)cc2)S(=O)(=O)c2ccc(C)cc2)cc1"
subject_of_test = "SNB-19"
label = "inactive"


Request: Would you mind telling me which call this test gave CCNCCCCNCCCCNCCCCNCCCCNCC ?
Response: inactive

Request: What is the recorded call for this compound in the test? CCOC(=O)C(=O)Nc1ccc(C)cc1C
Response: inactive

Request: Could you please tell me the result logged for CC[C@H]1CN2CCc3cc(OC)c(OC)cc3[C@@H]2C[C@@H]1C[C@H]1NCCc2c1[nH]c1ccc(O)cc21 in this assay?
Response: active

Request: Please state the recorded outcome for this compound: O=C(Nc1ccccc1-c1nn(CN2CCNCC2)c(=S)n(CN2CCNCC2)c1=O)C(F)(F)F
Response: inactive

Request: Call for entry COc1nc(=O)n(C2CC(F)C(CO)O2)cc1C (configuration not stated) :
Response: inactive

Request: So what was the verdict on COc1ccc([C@@]2(O)c3c(ccc(O)c3OC)[C@H]2OC)c(OC)c1 in this test?
Response: inactive

Request: Outcome logged for Nc1cc2nc(-c3ccccc3)cn2cn1 in this assay:
Response: inactive

Request: Please share the test call associated with N#CCc1cccc(CC#N)c1Br .
Response: inactive

Request: Fill in: this test's call for COc1cccc(-n2c3nc(=O)n(C)c(=O)c-3nc3ccccc32)c1 is ___
Response: inactive

Request: Outcome? O=c1c2ccc3cccc4c(=O)cc(c5ccccc15)-c2c34
Response: inactive

Request: Hi, sorry to bother you, what did the test record for CSC(=S)N(C)C ?
Response: inactive

Request: Fill in: this test's call for COC(=O)C(Cc1c[nH]c2ccccc12)NC(=O)C(Cc1c[nH]cn1)NC(=O)C1CCC(=O)N1C(=O)OCc1ccccc1 (configuration not stated) is ___
Response: inactive

Request: What is the recorded call for this compound in the test? CCc1ccccc1NC(=O)C1=C(C)NC(C)=C(C(=O)Nc2ccccc2CC)C1c1ccccc1Cl
Response: inactive

Request: For ClCCN(CC#CCCCC#CCN(CCCl)CCCl)CCCl , which call appears in the assay record?
Response: inactive

Request: In this assay, the call recorded for CC1=NN2C(c3ccc([N+](=O)[O-])cc3)=CSC2=NC(C)(C)C1 was what?
Response: inactive

Request: Returns: the outcome recorded for O=c1[nH][nH]c(=O)n1Cc1ccccc1Cn1c(=O)[nH][nH]c1=O in this assay.
Response: inactive

Request: Hi, do you know how CCN(CC)CC(O)CNc1ccc(NCC(O)CCl)c2c1C(=O)c1ccccc1C2=O (configuration not stated) came out in this test?
Response: inactive

Request: Can you look up the reported call for CC(C)=CCC[C@@H](C)C1=C(Nc2ccccc2)C(=O)C(C)=C(O)C1=O for me?
Response: inactive

Request: Please let me know the test result on file for S=c1[nH]nc(Cc2ccccc2)c(=S)[nH]1 .
Response: inactive

Request: Returns: the outcome recorded for O=C(CCN(C(=O)O)S(=O)(=O)c1ccc(NC(=O)c2ccccc2)cc1)Nc1ccccc1 in this assay.
Response: inactive

Request: Short answer needed: outcome of this test for O=C1CNc2cc(N3CCN(c4cccc(C(F)(F)F)c4)CC3)ccc2N1 ?
Response: inactive

====

Tested on: COLO 205
Test: NCI tumour cell line growth inhibition, 48 h
Calls of active or inactive are those of the source. Cut-off read from the data, not from the text of the source: active = GI50 up to about 1.1 µM and inactive = higher.
assay endpoint: GI50

[[record]]
compound = "CCOC(=O)C(Sc1ccccc1)c1c(OC)cc(=O)oc1/C=[N+](/[O-])c1ccc(N(C)C)cc1 (centres undefined)"
result = "22.4 µM (inactive)"

[[record]]
compound = "N#CC12CC(C=O)=C(N)C1(C#N)CC(C=O)=C2N (centres undefined)"
result = "> 100 µM (inactive)"

[[record]]
compound = "CC[C@H]1CN2CCc3cc(OC)c(OC)cc3[C@@H]2C[C@@H]1C[C@H]1NCCc2c1[nH]c1ccc(O)cc21"
result = "< 0.01 µM (active)"


Proceed to the following item.
Request: Param item = CC1=CC[C@H](C[C@H](C#CCCCC2OCCO2)O[Si](C(C)C)(C(C)C)C(C)C)C(=O)CC1 ; retrieve measured GI50.
Response: > 100 µM (inactive)

====

Test system: Malme-3M
Experiment: NCI tumour cell line growth inhibition, 48 h
Activity calls are given as the source filed them. No stated cut-off is given here; in the data, active = GI50 up to about 1.1 µM and inactive = higher.
Your response should consist of one outcome taken from T = active, F = inactive

Example cases with answers are listed next.
[[record]]
molecule = "N#Cc1cc([N+](=O)[O-])ccc1NC(=O)C(=O)C(C(=O)c1ccc2ccccc2c1)C1OCc2ccccc21 (configuration not stated)"
label = "F"

[[record]]
molecule = "CC(=O)O[C@H]1[C@H](O[C@H]2CC[C@]34C[C@]35CC[C@]3(C)[C@@H]([C@@]6(C)CC[C@@H](C(C)(C)O)O6)[C@@H](O)C[C@@]3(C)[C@@H]5C[C@H](O[C@@H]3O[C@H](CO)[C@@H](O)[C@H](O)[C@H]3O)[C@H]4C2(C)C)OC[C@@H](O)[C@@H]1O"
label = "F"

[[record]]
molecule = "O=C(Nc1ccccc1-c1nn(CN2CCNCC2)c(=S)n(CN2CCNCC2)c1=O)C(F)(F)F"
label = "F"

[[record]]
molecule = "CC1(C)OC(C(=O)Nc2cc3c4ccccc4ccc3c3ccccc23)C(C(=O)N2CCCCC2)O1 (configuration not stated)"
label = "F"

[[record]]
molecule = "O=Cc1cc([N+](=O)[O-])no1"
label = "F"

[[record]]
molecule = "COc1cccc(/C=C2\\CCC(C)(CN(C)C)C2=O)c1 (configuration not stated)"
label = "F"

[[record]]
molecule = "O=C1C(=O)N(c2ccc(Cl)c(Cl)c2)C(=O)C(=O)C1c1nc2ccccc2s1"
label = "F"

[[record]]
molecule = "CC(=O)OCC1OC(OC2CC3C(C)(C)C(=O)CC[C@]3(C)C3CC[C@]45C[C@]4(CCC5[C@@H](C)CC(O)C(O)C(C)(C)O)[C@]23C)C(O)C(O)C1O (some centres not stated)"
label = "F"


Request: Which result was noted for this molecule in the test: N#Cc1nc2ccccc2nc1N1CCN(c2ccc([N+](=O)[O-])cc2)CC1
Response: F

Request: Look up the recorded call for COc1cc(C[S+]2CCCC2)c(SC)cc1C[S+]1CCCC1 in this test.
Response: F

Request: I'd appreciate the recorded outcome for Cc1ccc(S(=O)(=O)N/N=C/C2(c3ccccc3)c3ccccc3-c3ccccc32)cc1 from this test.
Response: F

====

Assignment: determine reported GI50 for the given molecules.
Test system: NCI/ADR-RES
Assay: NCI tumour cell line growth inhibition, 48 h
Activity calls are given as the source filed them. Cut-off read from the data, not from the text of the source: active = GI50 up to about 1.1 µM and inactive = higher.

// each listed molecule needs a value for GI50
1. O=c1[nH]c2ccc(O)cc2o1
2. CC/C=C\C/C=C\C/C=C\CCCCCCCC(=O)OC(COC(=O)CCCCCCCCCCCCCCCCC)COC1OC(CO)C(O)C(O)C1O (stereo not given)
3. CCOC(=O)N1c2c(c3ccccc3n2C(=O)OCC)C(=O)C(OC)N1C(=O)OCC (stereo not given)
4. CCNCCCCNCCCCNCCCCNCCCCNCC
5. CCCCCCCCCCCCCCCCCc1cccc(OCOCCOC)c1C(=O)O

Response:
> 100 µM (inactive)
23.6 µM (inactive)
22.9 µM (inactive)
> 100 µM (inactive)
14.5 µM (inactive)

====

System: HCT-116
Assay: NCI tumour cell line growth inhibition, 48 h
Activity calls are given as the source filed them. Rule as the data show it: active = GI50 up to about 1.1 µM and inactive = higher. Square brackets hold non-standard residues; d marks the D form. Peptide text beside a SMILES is read from it.
assay endpoint: GI50

# count of solved cases: 5
[[record]]
molecule = "C/C=C/CC(S(=O)(=O)c1ccccc1)S(=O)(=O)c1ccccc1"
result = "> 100 µM (inactive)"

[[record]]
molecule = "COc1nc(NC2OC(COC(C)=O)C(OC(C)=O)C(OC(C)=O)C2OC(C)=O)c2c(OC(C)=O)cc(=O)oc2n1 (stereo not drawn)"
result = "> 100 µM (inactive)"

[[record]]
molecule = "O=S(=O)(CC(Cl)c1ccccc1)c1nc2ccccc2s1 (stereo not drawn)"
result = "9.86 µM (inactive)"

[[record]]
molecule = "O=C(NC1C2CC3CC(C2)CC1C3)c1ccncn1 (stereo not drawn)"
result = "> 100 µM (inactive)"

[[record]]
molecule = "O=C1/C(=C/c2ccccc2)CCc2ccc(Cl)nc21"
result = "2.55 µM (inactive)"


Please state GI50 for every molecule in the list that follows.
1. CCOc1ccccc1NC(=O)CC1Sc2ccccc2NC1=O (stereo not drawn)
2. CC(C)C[C@H](NC(=O)[C@H](CC(C)C)NC(=O)[C@@H](Cc1c[nH]c2ccccc12)NC(=O)[C@H](Cc1ccccc1)NC(=O)[C@@H](Cc1c[nH]c2ccccc12)NC(=O)[C@H](CCC(N)=O)NC(=O)[C@@H](CCC(N)=O)NC(=O)[C@@H]1CCCN1C(=O)[C@@H](CCCCN)NC(=O)[C@H]1CCCN1C(=O)[C@H](N)CCCN=C(N)N)C(N)=O (H-[dR][dP][dK]P[dQ]Q[dW]F[dW]LL-NH2)
3. O=c1c2ccc3cccc4c(=O)cc(c5ccccc15)-c2c34
4. [N-]=[N+]=CC(=O)C1CCCN1C(=O)c1ccccc1 (stereo not drawn)
5. CC1(C)CC(=O)c2c(nc3c(ccc4ccccc43)c2-c2ccc(NC(=O)CCC(=O)Nc3ccc(-c4c5c(nc6c4ccc4ccccc46)CC(C)(C)CC5=O)cc3)cc2)C1

Response:
1. > 100 µM (inactive)
2. > 100 µM (inactive)
3. > 100 µM (inactive)
4. > 10 µM (inactive)
5. > 100 µM (inactive)

I need GI50 for every entry listed below, if you could help.
1. COc1cc2c(cc1OC)C1C3CCCCC3CCN1CC2 (stereo not drawn)
2. Nc1cc(O)c2c(c1O)C(=O)C=CC2=O
3. CC(C)(O)[C@@H]1CC[C@](C)(C2[C@@H](O)C[C@@]3(C)C4C[C@H](OC5OCC(O)C(O)C5O)[C@H]5C(C)(C)[C@@H](OC6OCC(O)C(O)C6OC6OCC(O)C(O)C6O)CC[C@@]56C[C@@]46CC[C@]23C)O1 (stereo partly drawn)

Response:
1. 48.6 µM (inactive)
2. 5.19 µM (inactive)
3. > 100 µM (inactive)
